Listing of recorded %Inh by entry.
Tested on: BLK;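 further: KINOMEscan kinase panel screen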
condition-context: concentration: 1 μM, replicates: in singlicate; n = 1

Some molecules with recorded %Inh:
Field request: %Inh | item: Cl.c1ccc(-c2n[nH]cc2-c2ccnc(-c3ccc(CN4CCOCC4)cc3)c2)nc1
9%

Next up: Cc1cc(NCC(c2ccccc2)c2ccccc2)nc(NCc2ccc(C(F)(F)F)cc2)n1
25%

Next up: O=C(Nc1ccccc1)Nc1cccc(Oc2ccc3nccn3n2)c1
0%

Next up: COc1cc2nccc(Nc3ccc(NC(=O)c4ccc(C)cc4)c(O)c3)c2cc1OC.Cl
95.5%

Next up: O=C(Nc1n[nH]c2cc(-c3cccc(F)c3F)ccc12)C1CC1
0%

Next up: CC(C)(C)c1ccc(C(=O)Nc2cn3cc(-c4cccnc4)ccc3n2)cc1
8%

More entries:
Field request: %Inh | item: COC(=O)c1c(-c2ccccc2)c2cc(C(=O)O)ccc2c(=O)n1Cc1ccccc1
0%

Next up: Cn1cncc1-c1ccc2ncnc(Nc3ccc(OCc4ccccc4)cc3)c2c1
13%
